- tgt: α-glucosidase (Saccharomyces cerevisiae, UniProt P53341)
pKi: −log10 of the molar value.

- compound.structure: "O=C(NN=Cc1cccc(F)c1)c1ccc2nc(-c3ccccc3)c(-c3ccccc3)nc2c1"
  pKi: 3.97

====

- tgt: α-glucosidase from Saccharomyces cerevisiae (Saccharomyces cerevisiae)
- protocol.text: biochemical
Each record here notes measured IC50.

- compound: "O=C(NN=Cc1cccs1)c1ccc2nc(-c3ccccc3)c(-c3ccccc3)nc2c1 [7o]"
  IC50: "145 µM"
- compound: "O=C(NN=Cc1ccccc1)c1ccc2nc(-c3ccccc3)c(-c3ccccc3)nc2c1 [7a]"
  IC50: "155 µM"
- compound: "COc1ccc(C=NNC(=O)c2ccc3nc(-c4ccccc4)c(-c4ccccc4)nc3c2)cc1 [7g]"
  IC50: "320 µM"
- compound: "COc1cc(C=NNC(=O)c2ccc3nc(-c4ccccc4)c(-c4ccccc4)nc3c2)ccc1O [7j]"
  IC50: "358 µM"
- compound: "COc1cccc(C=NNC(=O)c2ccc3nc(-c4ccccc4)c(-c4ccccc4)nc3c2)c1[N+](=O)[O-] [7h]"
  IC50: "305 µM"
- compound: "O=C(NN=Cc1cc2c(cc1[N+](=O)[O-])OCO2)c1ccc2nc(-c3ccccc3)c(-c3ccccc3)nc2c1 [7m]"
  IC50: "354 µM"
- compound: "COc1cc(/C=N/NC(=O)c2ccc3nc(-c4ccccc4)c(-c4ccccc4)nc3c2)cc(OC)c1OC [7k]"
  IC50: "> 750 µM"
- compound: "O=C(NN=Cc1cccc(Oc2ccccc2)c1)c1ccc2nc(-c3ccccc3)c(-c3ccccc3)nc2c1 [7l]"
  IC50: "453 µM"
- compound: "O=C(NN=Cc1cccc2ccccc12)c1ccc2nc(-c3ccccc3)c(-c3ccccc3)nc2c1 [7n]"
  IC50: "388 µM"
- compound: "O=C(NN=Cc1ccccc1[N+](=O)[O-])c1ccc2nc(-c3ccccc3)c(-c3ccccc3)nc2c1 [7b]"
  IC50: "175 µM"
- compound: "O=C(NN=Cc1cc([N+](=O)[O-])ccc1Cl)c1ccc2nc(-c3ccccc3)c(-c3ccccc3)nc2c1 [7i]"
  IC50: "231 µM"
- compound: "O=C(NN=Cc1cccc([N+](=O)[O-])c1)c1ccc2nc(-c3ccccc3)c(-c3ccccc3)nc2c1 [7c]"
  IC50: "279 µM"
- compound: "O=C(NN=Cc1ccc([N+](=O)[O-])cc1)c1ccc2nc(-c3ccccc3)c(-c3ccccc3)nc2c1 [7d]"
  IC50: "240 µM"
- compound: "O=C(NN=Cc1ccc(Cl)cc1)c1ccc2nc(-c3ccccc3)c(-c3ccccc3)nc2c1 [7f]"
  IC50: "260 µM"

====

Each record here notes measured melting point.

- compound.structure: "O=C(NN=Cc1cc([N+](=O)[O-])ccc1Cl)c1ccc2nc(-c3ccccc3)c(-c3ccccc3)nc2c1"
  melting point: "> 250 °C"
- compound.structure: "COc1cccc(C=NNC(=O)c2ccc3nc(-c4ccccc4)c(-c4ccccc4)nc3c2)c1[N+](=O)[O-]"
  melting point: "> 250 °C"
- compound.structure: "O=C(NN=Cc1cc2c(cc1[N+](=O)[O-])OCO2)c1ccc2nc(-c3ccccc3)c(-c3ccccc3)nc2c1"
  melting point: "> 250 °C"
- compound.structure: "O=C(NN=Cc1cccc(F)c1)c1ccc2nc(-c3ccccc3)c(-c3ccccc3)nc2c1"
  melting point: "> 250 °C"
- compound.structure: "O=C(NN=Cc1cccc(Oc2ccccc2)c1)c1ccc2nc(-c3ccccc3)c(-c3ccccc3)nc2c1"
  melting point: "> 250 °C"
- compound.structure: "O=C(NN=Cc1cccc2ccccc12)c1ccc2nc(-c3ccccc3)c(-c3ccccc3)nc2c1"
  melting point: "> 250 °C"
- compound.structure: "COc1ccc(C=NNC(=O)c2ccc3nc(-c4ccccc4)c(-c4ccccc4)nc3c2)cc1"
  melting point: "> 250 °C"
- compound.structure: "O=C(NN=Cc1ccccc1)c1ccc2nc(-c3ccccc3)c(-c3ccccc3)nc2c1"
  melting point: "230 to 232 °C"
- compound.structure: "O=C(NN=Cc1ccccc1[N+](=O)[O-])c1ccc2nc(-c3ccccc3)c(-c3ccccc3)nc2c1"
  melting point: "> 250 °C"
- compound.structure: "COc1cc(C=NNC(=O)c2ccc3nc(-c4ccccc4)c(-c4ccccc4)nc3c2)ccc1O"
  melting point: "> 250 °C"
- compound.structure: "O=C(NN=Cc1ccc(Cl)cc1)c1ccc2nc(-c3ccccc3)c(-c3ccccc3)nc2c1"
  melting point: "234 to 238 °C"
- compound.structure: "O=C(NN=Cc1cccs1)c1ccc2nc(-c3ccccc3)c(-c3ccccc3)nc2c1"
  melting point: "242 to 246 °C"
- compound.structure: "O=C(NN=Cc1ccc([N+](=O)[O-])cc1)c1ccc2nc(-c3ccccc3)c(-c3ccccc3)nc2c1"
  melting point: "> 250 °C"
- compound.structure: "O=C(NN=Cc1cccc([N+](=O)[O-])c1)c1ccc2nc(-c3ccccc3)c(-c3ccccc3)nc2c1"
  melting point: "> 250 °C"

====

- tgt: α-glucosidase from Saccharomyces cerevisiae (Saccharomyces cerevisiae, UniProt P53341)
- Sequence (P53341 whole entry): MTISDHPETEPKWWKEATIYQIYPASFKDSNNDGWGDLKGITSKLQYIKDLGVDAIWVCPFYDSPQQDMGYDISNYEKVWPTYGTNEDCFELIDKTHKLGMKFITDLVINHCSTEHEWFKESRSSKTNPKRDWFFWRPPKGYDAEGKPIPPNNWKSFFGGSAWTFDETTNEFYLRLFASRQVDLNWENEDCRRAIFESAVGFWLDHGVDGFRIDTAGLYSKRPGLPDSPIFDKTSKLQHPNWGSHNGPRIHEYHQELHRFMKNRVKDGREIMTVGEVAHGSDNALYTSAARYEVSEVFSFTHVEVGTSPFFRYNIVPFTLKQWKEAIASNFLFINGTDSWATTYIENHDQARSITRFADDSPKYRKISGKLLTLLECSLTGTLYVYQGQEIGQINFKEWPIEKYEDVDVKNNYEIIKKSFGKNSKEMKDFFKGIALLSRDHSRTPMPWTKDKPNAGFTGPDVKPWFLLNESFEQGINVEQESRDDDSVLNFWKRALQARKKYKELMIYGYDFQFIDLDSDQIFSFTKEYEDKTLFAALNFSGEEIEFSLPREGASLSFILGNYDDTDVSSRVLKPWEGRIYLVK
- protocol.text: biochemical
- experimental.parameters: in vitro α-glucosidase inhibition; substrate p-nitrophenyl glucopyranoside; mean ± SEM, at least three experiments; read-out: IC50
pIC50: −log10 of the molar value.

- molecule: "O=C(NN=Cc1cccc(F)c1)c1ccc2nc(-c3ccccc3)c(-c3ccccc3)nc2c1 [7e]"
  pIC50: 3.96
